Numbers sourced from patent US9840513B2.

Measured On: F508delCFTR cell surface expression in CFBE41o-F508delCFTR-HRP cells (Homo sapiens, UniProt P13569, DEL508-508)
Construct: fused on or other part: Horseradish peroxidase (HRP) reporter inserted in the fourth exofacial (extracellular) loop of CFTR; expression is doxycycline-inducible
Sequence (P13569 with tags, fused parts or gaps DEL508-508 limits assumed): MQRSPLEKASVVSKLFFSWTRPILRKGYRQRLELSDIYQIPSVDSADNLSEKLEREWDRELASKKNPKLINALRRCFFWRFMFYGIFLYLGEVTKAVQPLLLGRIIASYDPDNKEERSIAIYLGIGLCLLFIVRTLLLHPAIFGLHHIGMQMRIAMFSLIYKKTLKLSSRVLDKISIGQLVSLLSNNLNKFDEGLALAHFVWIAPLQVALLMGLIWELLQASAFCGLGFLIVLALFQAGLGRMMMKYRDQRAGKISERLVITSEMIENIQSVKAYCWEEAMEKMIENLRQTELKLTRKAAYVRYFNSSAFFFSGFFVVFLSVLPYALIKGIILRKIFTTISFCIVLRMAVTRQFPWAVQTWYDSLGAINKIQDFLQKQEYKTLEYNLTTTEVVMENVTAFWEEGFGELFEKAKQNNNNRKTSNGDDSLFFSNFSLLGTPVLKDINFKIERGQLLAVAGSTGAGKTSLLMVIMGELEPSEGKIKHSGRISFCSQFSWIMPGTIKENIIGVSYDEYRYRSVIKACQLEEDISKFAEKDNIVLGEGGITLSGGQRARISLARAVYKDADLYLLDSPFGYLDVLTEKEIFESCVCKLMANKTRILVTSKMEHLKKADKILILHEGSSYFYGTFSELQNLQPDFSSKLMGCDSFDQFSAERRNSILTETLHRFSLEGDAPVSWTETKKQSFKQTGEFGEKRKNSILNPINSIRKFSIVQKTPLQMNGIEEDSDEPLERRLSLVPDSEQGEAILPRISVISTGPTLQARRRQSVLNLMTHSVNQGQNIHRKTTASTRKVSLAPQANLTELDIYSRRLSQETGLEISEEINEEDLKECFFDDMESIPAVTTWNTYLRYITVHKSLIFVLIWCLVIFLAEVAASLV
Sequence (P13569 919-1480 limits assumed, stated change not applied): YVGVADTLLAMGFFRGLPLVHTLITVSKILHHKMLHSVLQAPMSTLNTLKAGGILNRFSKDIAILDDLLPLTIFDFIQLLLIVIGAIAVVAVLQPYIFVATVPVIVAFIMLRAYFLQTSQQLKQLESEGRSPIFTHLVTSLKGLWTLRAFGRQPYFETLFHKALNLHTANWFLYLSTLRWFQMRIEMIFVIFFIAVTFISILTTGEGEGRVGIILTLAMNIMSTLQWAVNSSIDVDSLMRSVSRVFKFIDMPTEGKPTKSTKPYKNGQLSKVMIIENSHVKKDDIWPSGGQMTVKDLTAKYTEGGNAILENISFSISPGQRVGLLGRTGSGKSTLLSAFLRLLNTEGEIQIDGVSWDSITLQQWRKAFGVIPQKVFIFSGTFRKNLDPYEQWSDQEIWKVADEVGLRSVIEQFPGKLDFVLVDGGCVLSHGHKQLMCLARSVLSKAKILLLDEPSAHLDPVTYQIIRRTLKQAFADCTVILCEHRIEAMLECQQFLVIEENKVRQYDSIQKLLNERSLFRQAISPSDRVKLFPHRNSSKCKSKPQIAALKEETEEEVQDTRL
Assay Method Text: Cell Surface Expression-Horse Radish Peroxidase (CSE-HRP) Assay
Assay type: cell-based
Reported Conditions: maximum at any tested concentration, normalized to on-plate positive control (3 μM)
Recorded Metric: Maximum % activity (%)

The following compounds have reported results that may help.
Compound | Maximum % activity (%)
C[C@]1(C(=O)N[C@@H]2C[C@H](c3ccc(C(=O)O)cc3)Oc3ccccc32)COc2cc3c(cc21)OC(F)(F)O3 | 127
C[C@]1(C(=O)N[C@@H]2C[C@H]([C@H]3CC[C@H](C(=O)N4CCC(O)CC4)CC3)Oc3cc(OC(F)(F)F)ccc32)COc2cc3c(cc21)OC(F)(F)O3 | 173
CCN(CCO)C(=O)[C@H]1CC[C@H]([C@H]2C[C@@H](NC(=O)[C@@]3(C)COc4cc5c(cc43)OC(F)(F)O5)c3ccc(OC(F)(F)F)cc3O2)CC1 | 150
COC(=O)[C@@H]1CCN(c2cccc(NC(=O)C3(C)COc4cc5c(cc43)OC(F)(F)O5)n2)C1 (stereo partly drawn) | 124

1: COc1ccc2c(c1)O[C@@H](c1ccc(C(=O)N(CCO)Cc3ccccc3)cn1)C[C@H]2NC(=O)[C@@]1(C)COc2cc3c(cc21)OC(F)(F)O3
2: C[C@]1(C(=O)N[C@H]2C[C@@H]([C@H]3CC[C@H](C(=O)O)CC3)Oc3cc(OC(F)(F)F)ccc32)COc2cc3c(cc21)OC(F)(F)O3
Task: Param metric = Maximum % activity (%); output whichever of 1 , 2 has the minimum value. Reply with the label of the item you choose.
Result: 2

---

Measured On: F508delCFTR in primary hBE cells with F508del/F508del CFTR mutation (Homo sapiens, UniProt P13569, DEL508-508)
Construct: cells isolated from CF patients with the homozygous mutation; endogenous in cells; host or cells: primary human bronchial epithelial (hBE) cells from F508del/F508del CF patients
Sequence (P13569 with tags, fused parts or gaps DEL508-508): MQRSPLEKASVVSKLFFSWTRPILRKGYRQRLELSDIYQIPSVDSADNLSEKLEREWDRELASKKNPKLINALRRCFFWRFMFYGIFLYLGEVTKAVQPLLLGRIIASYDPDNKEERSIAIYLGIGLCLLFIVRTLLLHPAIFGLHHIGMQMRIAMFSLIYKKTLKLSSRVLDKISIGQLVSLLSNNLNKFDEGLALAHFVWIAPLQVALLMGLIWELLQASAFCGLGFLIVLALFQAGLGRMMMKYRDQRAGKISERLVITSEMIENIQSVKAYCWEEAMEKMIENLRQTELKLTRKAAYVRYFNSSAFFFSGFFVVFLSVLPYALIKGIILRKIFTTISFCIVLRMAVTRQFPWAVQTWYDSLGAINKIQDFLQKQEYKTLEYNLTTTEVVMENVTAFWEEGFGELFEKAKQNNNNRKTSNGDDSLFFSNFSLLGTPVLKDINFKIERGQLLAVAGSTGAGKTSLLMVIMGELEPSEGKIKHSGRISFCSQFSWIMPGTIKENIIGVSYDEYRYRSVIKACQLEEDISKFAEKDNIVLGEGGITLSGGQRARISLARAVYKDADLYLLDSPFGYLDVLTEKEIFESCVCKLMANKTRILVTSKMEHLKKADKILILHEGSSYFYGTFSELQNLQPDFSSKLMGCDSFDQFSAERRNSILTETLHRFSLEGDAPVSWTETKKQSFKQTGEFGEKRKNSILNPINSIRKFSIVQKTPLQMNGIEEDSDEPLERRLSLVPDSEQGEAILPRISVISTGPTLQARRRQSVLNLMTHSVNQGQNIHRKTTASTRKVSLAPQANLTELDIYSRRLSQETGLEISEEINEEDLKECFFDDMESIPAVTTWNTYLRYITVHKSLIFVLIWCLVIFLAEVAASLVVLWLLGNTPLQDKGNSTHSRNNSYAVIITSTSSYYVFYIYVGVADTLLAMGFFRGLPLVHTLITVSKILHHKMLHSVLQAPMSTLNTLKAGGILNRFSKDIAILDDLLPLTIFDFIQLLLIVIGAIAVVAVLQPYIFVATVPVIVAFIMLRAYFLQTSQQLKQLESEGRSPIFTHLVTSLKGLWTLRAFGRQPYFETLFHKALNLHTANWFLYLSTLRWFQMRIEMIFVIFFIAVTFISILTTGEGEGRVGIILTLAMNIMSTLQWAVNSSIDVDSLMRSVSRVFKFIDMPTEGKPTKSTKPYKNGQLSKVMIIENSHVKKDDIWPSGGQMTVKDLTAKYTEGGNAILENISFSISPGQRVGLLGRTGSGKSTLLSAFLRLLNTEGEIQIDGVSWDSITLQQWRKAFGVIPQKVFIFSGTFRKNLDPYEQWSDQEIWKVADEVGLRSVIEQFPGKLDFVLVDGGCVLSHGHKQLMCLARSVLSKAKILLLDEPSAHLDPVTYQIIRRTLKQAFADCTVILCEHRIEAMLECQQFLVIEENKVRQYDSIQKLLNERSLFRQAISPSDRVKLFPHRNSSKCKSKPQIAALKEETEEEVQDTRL
Assay Method Text: Transepithelial Clamp Circuit on Human Bronchial Epithelial Cells Conductance Assay (hBE-TECC)
Assay type: cell-based
Reported Conditions: relative to positive control (3 μM) coupled with control potentiator
Recorded Metric: Maximum % activity (%)

The following molecules have reported results that may help.
Molecule | Result Unit | Number
C[C@]1(C(=O)N[C@@H]2C[C@H]([C@H]3CC[C@H](C(=O)O)CC3)Oc3cc(OC(F)(F)F)ccc32)COc2cc3c(cc21)OC(F)(F)O3 [Example 150] | % | 94
COc1ccc2c(c1)O[C@@H](c1ccc(C(=O)NCC(O)CO)cn1)C[C@H]2NC(=O)[C@@]1(C)COc2cc3c(cc21)OC(F)(F)O3 (some centres unmarked) [Example 243] | % | 87
C[C@]1(C(=O)Nc2cc3cc(C4(CO)CCC4)n(C[C@@H](O)CO)c3cc2F)COc2cc3c(cc21)OC(F)(F)O3 [Example 134] | % | 79
COc1ccc2c(c1)O[C@@H](c1ccc(C(=O)N3CCN(CCO)CC3)cn1)C[C@H]2NC(=O)[C@@]1(C)COc2cc3c(cc21)OC(F)(F)O3 [Example 213] | % | 82

1: COc1ccc2c(c1)O[C@@H](c1ccc(CO)cn1)C[C@H]2NC(=O)[C@@]1(C)COc2cc3c(cc21)OC(F)(F)O3 [Example 174]
2: C[C@]1(C(=O)N[C@H]2C[C@@H]([C@H]3CC[C@H](C(=O)O)CC3)Oc3cc(OC(F)(F)F)ccc32)COc2cc3c(cc21)OC(F)(F)O3 [Example 149]
3: CC1(c2cc3cc(NC(=O)[C@@]4(C)COc5cc6c(cc54)OC(F)(F)O6)c(F)cc3n2C[C@@H](O)CO)COC1 [Example 171]
Task: Given 3 molecules, produce a descending ranking by Maximum % activity (%). List labels; respect the requested ordering.
Result: 1, 3, 2

I: C[C@]1(C(=O)N[C@H]2C[C@@H](c3ccccc3)O[C@@H](c3ccc(C(=O)O)cc3)C2)COc2cc3c(cc21)OC(F)(F)O3 (single isomer, unassigned) [Example 44]
II: C[C@]1(C(=O)N[C@@H]2C[C@H]([C@H]3CC[C@H](C(=O)NCC(O)CO)CC3)Oc3cc(OC(F)(F)F)ccc32)COc2cc3c(cc21)OC(F)(F)O3 (some centres unmarked) [Example 260]
Task: Param metric = Maximum % activity (%); output whichever of I , II has the minimum value. Reply with the label of the item you choose.
Result: I

I: Cc1ccc(NC(=O)C2(C)COc3cc4c(cc32)OC(F)(F)O4)nc1-c1cccc(C(=O)O)c1 (centres unmarked) [Example 2]
II: CC(C)(CO)c1nc2cc(NC(=O)[C@@]3(C)COc4cc5c(cc43)OC(F)(F)O5)c(F)cc2n1C[C@@H](O)CO [Example 137]
Task: Param metric = Maximum % activity (%); output whichever of I , II has the minimum value. Reply with the label of the item you choose.
Result: II

A: C[C@]1(C(=O)N[C@@H]2C[C@H](C3(C(=O)N4C[C@H](O)[C@@H](O)C4)CC3)Oc3cc(OC(F)(F)F)ccc32)COc2cc3c(cc21)OC(F)(F)O3 [Example 282]
B: Cc1ccc(NC(=O)[C@]2(C)CCc3c2ccc2c3OCO2)cc1-c1cccc(C(=O)O)c1 (single isomer, unassigned) [Example 37]
Task: Of the two listed items, A and B , which carries the larger Maximum % activity (%) figure? Reply with the label of the item you choose.
Result: A
(A: 100%, B: 70%)

---

Measured On: F508delCFTR cell surface expression in CFBE41o-F508delCFTR-HRP cells (Homo sapiens, UniProt P13569, DEL508-508)
Construct: fused on or other part: Horseradish peroxidase (HRP) reporter inserted in the fourth exofacial (extracellular) loop of CFTR; expression is doxycycline-inducible
Assay Method Text: Cell Surface Expression-Horse Radish Peroxidase (CSE-HRP) Assay
Reported Conditions: CFBE41o-F508delCFTR-HRP cells, 18-24 hours at 33° C., 8-point curve, highest concentration 20 μM
Recorded Metric: EC50 (nM)

The following molecules have reported results that may help.
Molecule | EC50 [nM]
C[C@]1(C(=O)Nc2cc3cc(C4(CO)COC4)n(C[C@@H](O)CO)c3cc2F)COc2cc3c(cc21)OC(F)(F)O3 [Example 135] | 2560
CC(C)(CO)c1cc2cc(NC(=O)[C@@]3(C)COc4cc5c(cc43)OC(F)(F)O5)c(F)cc2[nH]1 [Example 143] | 490
Cc1ccc(NC(=O)[C@@]2(C)COc3cc4c(cc32)OC(F)(F)O4)nc1-c1cccc(C(O)CO)c1 (stereo partly shown) [Example 126] | 620

A: C[C@]1(C(=O)Nc2cc(-c3ccccc3)cn(C[C@@H](O)CO)c2=O)COc2cc3c(cc21)OC(F)(F)O3 [Example 100]
B: C[C@]1(C(=O)Nc2cccc(-c3cccc(C(=O)O)c3F)n2)COc2cc3c(cc21)OC(F)(F)O3 [Example 125]
Task: Param metric = EC50; output whichever of A , B has the minimum value. Reply with the label of the item you choose.
Result: A

A: COC(=O)C1CCN(c2cccc(NC(=O)C3(C)COc4cc5c(cc43)OC(F)(F)O5)n2)CC1 (stereo not shown) [Example 70]
B: C[C@]1(C(=O)N[C@@H]2C[C@H]([C@H]3CC[C@H](C(=O)NC(CO)c4ccccc4)CC3)Oc3cc(OC(F)(F)F)ccc32)COc2cc3c(cc21)OC(F)(F)O3 (stereo partly shown) [Example 269]
Task: Of the two listed items, A and B , which carries the larger EC50 figure? Reply with the label of the item you choose.
Result: A

---

Measured On: F508delCFTR cell surface expression in CFBE41o-F508delCFTR-HRP cells (Homo sapiens, UniProt P13569, DEL508-508)
Construct: fused on or other part: Horseradish peroxidase (HRP) reporter inserted in the fourth exofacial (extracellular) loop of CFTR; expression is doxycycline-inducible
Assay Method Text: Cell Surface Expression-Horse Radish Peroxidase (CSE-HRP) Assay
Reported Conditions: CFBE41o-F508delCFTR-HRP cells, 18-24 hours at 33° C., 8-point curve, highest concentration 20 μM
Recorded Metric: EC50 (nM)

P: C[C@]1(C(=O)N[C@H]2C[C@@H](c3ccccc3)O[C@@H](c3ccc(C(=O)O)cc3)C2)COc2cc3c(cc21)OC(F)(F)O3 (single isomer, unassigned)
Q: C[C@]1(C(=O)Nc2cccc(N3CC[C@H](C(=O)O)C3)n2)COc2cc3c(cc21)OC(F)(F)O3
R: COc1ccc2c(c1)O[C@@H](c1ccc(C(=O)O)cc1)C[C@H]2NC(=O)[C@@]1(C)COc2cc3c(cc21)OC(F)(F)O3
Task: Lab note: rank above entries, EC50 ascending. List labels; respect the requested ordering.
Result: R, Q, P
(R: 30 nM, Q: 620 nM, P: 930 nM)
